molecular target: GlcNAc(b1-6)Gal(b1-4)GlcNAc; experiment: glycan array binding signal (z-score within array); higher = stronger binding; conditions: glycan notation: IUPAC condensed, linker removed
This is one part of a sample in which the strongest signals are shown more often than they occur.
PROPERTY LABEL: glycan array binding signal (z-score)

Please supply the value of reported glycan array binding signal (z-score) for the item TREM-2 (Mus musculus), Q99NH8 (protein) MGPLHQFLLLLITALSQALNTTVLQGMAGQSLRVSCTYDALKHWGRRKAWCRQLGEEGPCQRVVSTHGVWLLAFLKKRNGSTVIADDTLAGTVTITLKNLQAGDAGLYQCQSLRGREAEVLQKVLVEVLEDPLDDQDAGDLWVPEESSSFEGAQVEHSTSRNQETSFPPTSILLLLACVLLSKFLAASILWAVARGRQKPGTPVVRGLDCGQDAGHQLQILTGPGGT
-0.382

Please supply the value of reported glycan array binding signal (z-score) for the item HMGB1 (Rattus norvegicus), P63159 (protein) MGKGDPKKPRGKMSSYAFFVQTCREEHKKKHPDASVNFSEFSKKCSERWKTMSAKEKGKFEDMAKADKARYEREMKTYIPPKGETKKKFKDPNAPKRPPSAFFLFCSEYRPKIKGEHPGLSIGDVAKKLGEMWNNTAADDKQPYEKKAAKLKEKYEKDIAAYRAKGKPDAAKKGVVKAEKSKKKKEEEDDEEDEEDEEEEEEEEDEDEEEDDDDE
2.57

Please supply the value of reported glycan array binding signal (z-score) for the item ECL (Erythrina cristagalli), Q6YD91 (protein) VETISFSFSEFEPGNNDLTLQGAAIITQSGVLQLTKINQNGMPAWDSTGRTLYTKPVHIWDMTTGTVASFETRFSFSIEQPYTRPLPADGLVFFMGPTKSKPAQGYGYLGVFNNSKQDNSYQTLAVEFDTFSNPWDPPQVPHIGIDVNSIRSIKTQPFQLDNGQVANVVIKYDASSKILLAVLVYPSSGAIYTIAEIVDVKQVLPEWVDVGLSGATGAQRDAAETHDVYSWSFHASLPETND
-0.23

Please supply the value of reported glycan array binding signal (z-score) for the item PFL (Pseudomonas fluorescens) (protein) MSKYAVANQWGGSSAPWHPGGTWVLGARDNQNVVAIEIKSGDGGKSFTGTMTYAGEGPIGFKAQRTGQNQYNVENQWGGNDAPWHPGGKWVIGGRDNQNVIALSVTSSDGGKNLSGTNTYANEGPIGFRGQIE
-0.117

Please supply the value of reported glycan array binding signal (z-score) for the item his-Lectin-24A (Drosophila melanogaster) (protein) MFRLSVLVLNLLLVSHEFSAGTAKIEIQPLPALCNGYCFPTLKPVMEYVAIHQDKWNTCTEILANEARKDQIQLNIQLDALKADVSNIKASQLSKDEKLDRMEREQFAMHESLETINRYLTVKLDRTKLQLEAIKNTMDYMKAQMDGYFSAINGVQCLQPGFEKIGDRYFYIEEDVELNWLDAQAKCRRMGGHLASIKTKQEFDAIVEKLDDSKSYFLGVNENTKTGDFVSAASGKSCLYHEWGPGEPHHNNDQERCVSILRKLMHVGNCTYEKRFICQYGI
0.608

Please supply the value of reported glycan array binding signal (z-score) for the item Eosinophil cationic protein (ECP) (Homo sapiens), P12724 (protein) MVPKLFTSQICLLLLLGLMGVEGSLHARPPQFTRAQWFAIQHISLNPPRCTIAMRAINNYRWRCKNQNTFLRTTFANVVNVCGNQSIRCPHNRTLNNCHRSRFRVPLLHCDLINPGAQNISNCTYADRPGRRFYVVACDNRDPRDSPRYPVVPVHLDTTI
0.126
